- run-parameters: in n-octane, 314.15 K
property: solubility (mole fraction)
Lab note: record just the number, no unit beside it.

input: Name the reported solubility (mole fraction) value associated with the molecule CC(=O)c1ccc2cc(C)ccc2c1
output: 0.0755

====

- run-parameters: in n-dodecane, 288.15 K
property: solubility (mole fraction)
Please reply with the value in numeric form only.

input: Recorded solubility (mole fraction) for CC(=O)c1ccc2cc(C)ccc2c1 , please?
output: 0.0188

====

- run-parameters: in n-octane, 303.15 K
property: solubility (mole fraction)
Could you respond with only the numeric value?

input: Requested field: solubility (mole fraction). Item: CC(=O)c1ccc2cc(C)ccc2c1
output: 0.0417
